Test system: SK-OV-3 ovarian
experiment.notes: NCI tumour cell line growth inhibition, 48 h
We begin with a simple list: items and their reported GI50.

Completed entries (count: 5):
{"compound": "COc1ccc2cc1Oc1ccc(cc1)CC1c3c(cc(OC)c4c3Oc3cc5c(cc3O4)CCNC5C2)CCN1C (centres undefined)", "tgt": "SK-OV-3 ovarian", "property.label": "GI50", "experimental.value": "1.74 µM"}
{"compound": "O=[N+]([O-])/C(=C/C=C/c1ccccc1)c1ccccc1", "tgt": "SK-OV-3 ovarian", "property.label": "GI50", "experimental.value": "12 µM"}
{"compound": "COc1ccc([C@H]2c3[nH]c4ccccc4c3C[C@H]3C(=O)N(CCCCCCC(=O)NO)CC(=O)N23)cc1", "tgt": "SK-OV-3 ovarian", "property.label": "GI50", "experimental.value": "3.02 µM"}
{"compound": "COc1cc(C(=O)Nc2ccc(-c3nc4ccccc4[nH]3)cc2)cc(OC)c1OC", "tgt": "SK-OV-3 ovarian", "property.label": "GI50", "experimental.value": "16.5 µM"}
{"compound": "C#CCN(CCCOc1ccc(Cl)cc1Cl)CCCSC(=O)CCCCCN1/C(=C\\C=C2/CCCC(/C=C/C3=[N+](CCCCCC(=O)[O-])c4ccccc4C3(C)C)=C2Cl)C(C)(C)c2ccccc21", "tgt": "SK-OV-3 ovarian", "property.label": "GI50", "experimental.value": "2.97 µM"}

Req: Give the measured GI50 for "COC(=O)c1sc(=S)c2sc(C(=O)OC)c(C(=O)OC)c2c1C(=O)OC"
Resp: > 100 µM

Req: Give the measured GI50 for "COc1ccc(C2=NOC3=c4ccccc4=CSC3=C2c2ccccc2)cc1"
Resp: > 100 µM

Req: Give the measured GI50 for "COc1cc(-c2ccc[nH]2)[nH]c1/C=C1\N=C(C)C(C(=O)NC(C)C)=C1C"
Resp: 10.7 µM

Req: Give the measured GI50 for "C=C(c1ccc(C(=O)NCCCn2ccnc2)cc1)c1cc2c(cc1C)C(C)(C)CCC2(C)C"
Resp: 2.09 µM

From: PubChem BioAssay (NCI)
